Biological target: T1, Fus1, P11710
T1 sequence (P11710 432-512, looked up): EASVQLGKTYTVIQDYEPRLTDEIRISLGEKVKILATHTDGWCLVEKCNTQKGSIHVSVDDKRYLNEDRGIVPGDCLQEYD
Experiment: SPOT array
Details: median of control spots 1200
Would you mind telling me the reported SPOT intensity of each entry?
Give bare numbers.

Here's what some known entries look like.
STKKPRPPVKSKPKH	1
PLQSKIPMLPSRRTM	0
MARRRLPDRPPNGIG	0
NENKKLPPAPTVFGL	0
ATNVPVAPPPPPASL	0
HGKRRAPLLLAKLDV	0
QFDLKMPSKPIHNLK	0
ALFRLSFFFPLDPAY	628

Items follow; give SPOT intensity for each.
1. TEVPIPRRPPPPQAA
2. PPIPNAPLSPAPAVP
3. NSMRPPLLIPAATTK
4. ATKSASPTLPTRRSR
5. NFKRLLPRDPSEKSS

1: 0; 2: 0; 3: 0; 4: 2; 5: 145

Items follow; give SPOT intensity for each.
1. STPQTMRQAPKRPDA
2. RKNRAPPQRPRFNRE

0
14
